For each of the compounds below, state its IC50.
# ASSAYED_SYSTEM: VLA-4 (α4β1 integrin) (Homo sapiens, UniProt P05556+P13612)
# PROTOCOL_TEXT: cell-based
# Format: cell-based
# TEST_SETTINGS: table 12, Examples 156-160; assay not given, values equal Ramos table 14; read-out: IC50
# From the text: Ramos (VLA-4)/VCAM-1 Cell-Based Screening Assay Protocol Calcein-AM was purchased from Molecular Probes Inc. VLA-4 (α4β1 integrin) antagonist activity, defined as ability to compete with cell-surface VLA-4 for binding to immobilized VCAM-1, was quantitated using a Ramos-VCAM-1 cell adhesion assay. Ramos cells bearing cell-surface VLA-4, were labeled with a fluorescent dye (Calcein-AM) and allowed to bind VCAM-1 in the presence or absence of test compounds. […]
Field: value (include unit after the number)

Input line: // lookup IC50 for Cc1nn(-c2ccccc2)nc1C(=O)N[C@@H](Cc1ccc(NC(=O)c2c(Cl)cccc2Cl)cc1)C(=O)O [Example 159]
Output line: 988 nM

Input line: // lookup IC50 for Cc1noc(C)c1C(=O)N[C@@H](Cc1ccc(NC(=O)c2c(Cl)cccc2Cl)cc1)C(=O)O [Example 158]
Output line: 946 nM

###

For each of the compounds below, state its pIC50.
# ASSAYED_SYSTEM: VLA-4 (Homo sapiens, UniProt P05556+P13612)
# Sequence (P13612 34-1032): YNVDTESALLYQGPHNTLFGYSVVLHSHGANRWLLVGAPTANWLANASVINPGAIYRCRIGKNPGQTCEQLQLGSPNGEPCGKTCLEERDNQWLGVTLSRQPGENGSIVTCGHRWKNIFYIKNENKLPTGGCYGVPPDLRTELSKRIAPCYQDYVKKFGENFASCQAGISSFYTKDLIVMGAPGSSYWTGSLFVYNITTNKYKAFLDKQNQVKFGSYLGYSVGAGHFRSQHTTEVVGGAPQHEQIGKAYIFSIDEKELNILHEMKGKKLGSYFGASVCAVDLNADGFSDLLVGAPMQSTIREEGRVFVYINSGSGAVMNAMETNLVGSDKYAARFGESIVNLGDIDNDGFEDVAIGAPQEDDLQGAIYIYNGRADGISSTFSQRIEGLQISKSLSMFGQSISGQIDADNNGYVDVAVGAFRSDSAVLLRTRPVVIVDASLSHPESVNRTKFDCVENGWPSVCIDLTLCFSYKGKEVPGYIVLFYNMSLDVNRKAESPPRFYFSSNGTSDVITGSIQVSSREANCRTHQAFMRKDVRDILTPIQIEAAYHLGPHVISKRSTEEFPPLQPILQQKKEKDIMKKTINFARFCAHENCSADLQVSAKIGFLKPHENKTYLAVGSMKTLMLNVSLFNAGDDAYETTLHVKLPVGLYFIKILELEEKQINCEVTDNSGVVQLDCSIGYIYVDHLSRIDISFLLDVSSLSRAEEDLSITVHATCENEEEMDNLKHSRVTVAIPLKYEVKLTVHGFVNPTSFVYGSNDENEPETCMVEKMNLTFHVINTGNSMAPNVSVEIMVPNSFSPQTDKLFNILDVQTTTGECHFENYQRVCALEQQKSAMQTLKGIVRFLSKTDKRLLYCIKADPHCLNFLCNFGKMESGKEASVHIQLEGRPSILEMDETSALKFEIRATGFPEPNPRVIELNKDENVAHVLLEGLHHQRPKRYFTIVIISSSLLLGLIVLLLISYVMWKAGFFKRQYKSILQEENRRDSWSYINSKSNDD
# Sequence (P05556 21-798): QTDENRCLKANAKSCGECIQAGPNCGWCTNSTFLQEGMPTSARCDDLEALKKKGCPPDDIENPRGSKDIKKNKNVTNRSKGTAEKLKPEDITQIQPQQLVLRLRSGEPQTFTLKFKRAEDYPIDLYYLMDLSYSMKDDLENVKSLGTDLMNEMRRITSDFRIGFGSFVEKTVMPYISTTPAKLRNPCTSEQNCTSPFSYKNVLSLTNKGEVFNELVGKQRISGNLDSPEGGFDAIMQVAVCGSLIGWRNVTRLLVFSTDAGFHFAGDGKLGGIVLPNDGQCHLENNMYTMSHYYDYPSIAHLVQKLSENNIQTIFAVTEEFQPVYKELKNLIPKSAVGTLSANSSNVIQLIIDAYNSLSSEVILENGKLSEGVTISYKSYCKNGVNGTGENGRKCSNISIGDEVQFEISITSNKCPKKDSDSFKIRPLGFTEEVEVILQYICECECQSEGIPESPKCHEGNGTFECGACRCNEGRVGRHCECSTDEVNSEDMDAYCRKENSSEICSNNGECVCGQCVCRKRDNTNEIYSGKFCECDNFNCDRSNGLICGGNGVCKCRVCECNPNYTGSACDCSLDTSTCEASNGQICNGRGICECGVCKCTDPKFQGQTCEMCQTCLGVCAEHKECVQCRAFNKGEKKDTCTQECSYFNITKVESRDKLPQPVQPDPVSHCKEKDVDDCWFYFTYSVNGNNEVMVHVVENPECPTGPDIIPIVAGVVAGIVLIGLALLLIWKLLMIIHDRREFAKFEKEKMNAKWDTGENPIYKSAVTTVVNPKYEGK
# PROTOCOL_TEXT: IC50 of table 7, assay not given
# TEST_SETTINGS: table 7, Examples 79-84; assay not stated
Please report pIC50 as the negative decimal logarithm of the molar concentration, giving only the number.

Input line: // lookup pIC50 for "Cc1cccc(Cl)c1C(=O)N[C@@H](Cc1ccc(N2C(=O)[C@H](C)N(C)C2=O)cc1)C(=O)O"
Output line: 7.28

Input line: // lookup pIC50 for "Cc1cccc(Cl)c1C(=O)N[C@@H](Cc1ccc(N2C(=O)[C@H](Cc3ccccc3)N(C)C2=O)cc1)C(=O)O"
Output line: 7.14

Input line: // lookup pIC50 for Cc1cccc(Cl)c1C(=O)NC(Cc1ccc(N2C(=O)C3Cc4ccccc4CN3C2=O)cc1)C(=O)O (centres unmarked)
Output line: 7.14

Input line: // lookup pIC50 for "Cc1cccc(Cl)c1C(=O)N[C@@H](Cc1ccc(N2C(=O)[C@@H](CC(C)C)N(C)C2=O)cc1)C(=O)O"
Output line: 7.25

Input line: // lookup pIC50 for "Cc1cccc(Cl)c1C(=O)N[C@@H](Cc1ccc(N2C(=O)[C@H](C(C)C)N(C)C2=O)cc1)C(=O)O"
Output line: 7.62

###

# ASSAYED_SYSTEM: VLA-4 (α4β1 integrin) (Homo sapiens, UniProt P05556+P13612)
# PROTOCOL_TEXT: biochemical
# Type: binding
# TEST_SETTINGS: table 9, Examples 97-102; assay not given, values equal ELISA table 13; read-out: IC50
For each of the compounds below, state its pIC50.
Please report pIC50 as the negative decimal logarithm of the molar concentration, giving only the number.

Input line: // lookup pIC50 for "CC(=O)N1CN(c2ccc(C[C@H](NC(=O)c3c(C)cccc3Cl)C(=O)O)cc2)C(=O)[C@@H]1CC(C)C"
Output line: 8.00

Input line: // lookup pIC50 for "CC(=O)N1[C@H](CC(C)C)C(=O)N(c2ccc(C[C@H](NC(=O)c3c(C)cccc3Cl)C(=O)O)cc2)[C@@H]1C(C)(C)C"
Output line: 7.39

Input line: // lookup pIC50 for "CC(=O)N1[C@H](CC(C)C)C(=O)N(c2ccc(C[C@H](NC(=O)c3c(C)cccc3Cl)C(=O)O)cc2)[C@@H]1c1ccc(O)cc1"
Output line: 8.63

Input line: // lookup pIC50 for "CC(=O)N1[C@H](CC(C)C)C(=O)N(c2ccc(C[C@H](NC(=O)c3c(C)cccc3Cl)C(=O)O)cc2)[C@H]1c1ccc(O)cc1"
Output line: 9.36

###

# ASSAYED_SYSTEM: VLA-4 (α4β1 integrin) (Homo sapiens, UniProt P05556+P13612)
# PROTOCOL_TEXT: cell-based
# Assay type: cell-based
# TEST_SETTINGS: table 8, Examples 90-95; read-out: IC50 Ramos
OBSERVED_PROPERTY: IC50 (nM)
Give your result in nM as a bare value.

Input line: // lookup IC50 for "CCc1cccc(C)c1C(=O)N[C@@H](Cc1ccc(NC(=O)c2c(Cl)cccc2Cl)cc1)C(=O)O"
Output line: 10

###

# ASSAYED_SYSTEM: VLA-4 (α4β1 integrin) (Homo sapiens, UniProt P05556+P13612)
# PROTOCOL_TEXT: biochemical
# Type: binding
# TEST_SETTINGS: table 13; competition for binding of Ramos cell-derived VLA-4 to immobilized VCAM-1; read-out: ELISA IC50
For each record, check the reported IC50: if it is below 2 nM write T, else write F.

Input line: Lab log: compare recorded IC50 with 2 nM; is it strictly lower for O=C(Nc1ccc(C[C@H](NC(=O)c2cccc3ccccc23)C(=O)O)cc1)c1c(Cl)cccc1Cl [Example 15] ?
Output line: F

Input line: Lab log: compare recorded IC50 with 2 nM; is it strictly lower for Cc1cc(C[C@H](NC(=O)c2c(C)cccc2Cl)C(=O)O)ccc1NC(=O)CCc1cccc(O)c1 [Example 120] ?
Output line: F

Input line: Lab log: compare recorded IC50 with 2 nM; is it strictly lower for Cc1cc(C[C@H](NC(=O)c2c(C)cccc2Cl)C(=O)O)ccc1NC(=O)Cc1cccc(O)c1 [Example 121] ?
Output line: F

Input line: Lab log: compare recorded IC50 with 2 nM; is it strictly lower for CC(C)(C)c1ccccc1C(=O)N[C@@H](Cc1ccc(NC(=O)c2c(Cl)cccc2Cl)cc1)C(=O)O [Example 17] ?
Output line: T

Input line: Lab log: compare recorded IC50 with 2 nM; is it strictly lower for Cc1cc(C[C@H](NC(=O)c2c(C)cccc2Cl)C(=O)O)ccc1NC(=O)c1c(Cl)cccc1Cl [Example 123] ?
Output line: T

Input line: Lab log: compare recorded IC50 with 2 nM; is it strictly lower for O=C(Nc1ccc(C[C@H](NC(=O)c2c(F)cccc2C(F)(F)F)C(=O)O)cc1)c1c(Cl)cccc1Cl [Example 16] ?
Output line: T

Input line: Lab log: compare recorded IC50 with 2 nM; is it strictly lower for Cc1cc(C[C@H](NC(=O)c2c(C)cccc2Cl)C(=O)O)ccc1NC(=O)c1cccc([N+](=O)[O-])c1 [Example 122] ?
Output line: T

Input line: Lab log: compare recorded IC50 with 2 nM; is it strictly lower for O=C(N[C@@H](Cc1ccc(NC(=O)c2c(Cl)cccc2Cl)cc1)C(=O)O)c1ccccc1Cc1ccccc1 [Example 31] ?
Output line: T
